B1: CPEB3 Ribozyme (parent)
chain: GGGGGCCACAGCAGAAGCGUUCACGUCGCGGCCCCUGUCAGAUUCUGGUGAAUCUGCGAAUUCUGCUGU

Variants of: B1
Experiment: self-cleavage, relative activity (ratio to wild type); higher = more cleavage; co-transcriptional
ASSAY METRIC: self-cleavage

>>> reported_result("GGGGGCCACAGCAGAAGCGUUCACGUCGCAGCCCCUGUCAGAUUCGGGUGAAUCUGCGAAUUCUGCUGU [G30A U46G]")
0.888
>>> reported_result("GGGGGCCACAGCAGAAGCGUUCACGUCGCGGCCCCUGACGGAUUCUGGUGAAUCUGCGAAUUCUGCUGU [U38A A40G]")
0.808
>>> reported_result("GGGGGCCACAGCAGAAGCGUUCUCGUCGCGGACCCUGUCAGAUUCUGGUGAAUCUGCGAAUUCUGCUGU [A23U C32A]")
0.893
>>> reported_result("GGGGGCCACAGCAGAAGCGUUCUCGUCGCGGCCCCUGUCAGAUUCUGGUGAAUCUGGGAAUUCUGCUGU [A23U C57G]")
0.358
>>> reported_result("GGGGGCCACAGCAGAAGCGUUCACGUCUCGGCCCCUGUCAGAUUCUGGUGAAUCUGCGAAUUCUGCUGA [G28U U69A]")
0.183
>>> reported_result("GGGGGCCACAGCAGAAGCGUUCACGUCGCGGCCCCUGUGAGAUUCUGGUGAAUCUGCGAAUUGUGCUGU [C39G C63G]")
0.513
>>> reported_result("GGGGGCCACAGCAGCAGCGUUAACGUCGCGGCCCCUGUCAGAUUCUGGUGAAUCUGCGAAUUCUGCUGU [A15C C22A]")
0.148
>>> reported_result("GGGGGCCACAGCAGCAGCGUUCACGUCGCGGCCCCUGUCAGAUUCUAGUGAAUCUGCGAAUUCUGCUGU [A15C G47A]")
0.889
>>> reported_result("GGGGGCCACAGCAGAAGCGUUCACGUCGCGGCCCCCGUUAGAUUCUGGUGAAUCUGCGAAUUCUGCUGU [U36C C39U]")
0.732
>>> reported_result("GGGGGCCACGGCAGAAGCGUUCACGUCGCGGCCCCUGUCAGAUUCUGGUGAAUCUGCGACUUCUGCUGU [A10G A60C]")
0.176
>>> reported_result("GGGGGCCACAGCAGAAGCGUUCACGUCGCGGCCCCUGUUAGAUUCAGGUGAAUCUGCGAAUUCUGCUGU [C39U U46A]")
0.934
>>> reported_result("GGGGGCCACAGCAGAAGCGUUCACGUCGCGGCCCCUGUCAGAUUCUGGUGAAUCUGCGAAUUGUACUGU [C63G G65A]")
0.461
>>> reported_result("GGGGGCCACAGCAGAAGCGUUCACGUCGCGGCCCCUGUCAGAUUCUGGUGAAUCAGGGAAUUCUGCUGU [U55A C57G]")
0.33
>>> reported_result("GGGGGCCACAGCAGAAGCGUUCACGUCGCGUCACCUGUCAGAUUCUGGUGAAUCUGCGAAUUCUGCUGU [G31U C33A]")
0.235
>>> reported_result("GGGGGCCACCCCAGAAGCGUUCACGUCGCGGCCCCUGUCAGAUUCUGGUGAAUCUGCGAAUUCUGCUGU [A10C G11C]")
0.764
